SUBJECT_OF_TEST: Fatty-acid amide hydrolase 1 (Rattus norvegicus)
TEST_METHOD_NOTES: Inhibitory constant determined against recombinant Fatty-acid amide hydrolase from rat expressed in Escherichia coli
pKi: −log10 of the molar value.
Collected pKi values appear next to each entry.
ASSAY_READOUT: pKi

INSERT INTO results (mol_smiles, assay_readout, value) VALUES
  ('CCCCCCCC/C=C\CCCCCCCC(=O)c1ncc(-c2cccn2C)o1', 'pKi', 5.07),
  ('O=C(CCCCCCc1ccccc1)c1nc2ncccc2o1', 'pKi', 9.55),
  ('CCCCC(=O)c1ncc(-c2ccccn2)o1', 'pKi', 5.52),
  ('C=CCCCCCCCC(=O)c1ncc(-c2ccccn2)o1', 'pKi', 7.96),
  ('O=C(CCc1ccccc1)c1ncc(-c2ccccn2)o1', 'pKi', 6.70),
  ('CCCCCCCCCCCCCCCC(=O)c1ncc(-c2ccccn2)o1', 'pKi', 7.68),
  ('CCCCCCCC/C=C\CCCCCCCCc1ncc(-c2ccccn2)o1', 'pKi', 4.63),
  ('O=C(CCCCc1ccccc1)c1ncc(-c2ccccn2)o1', 'pKi', 7.48);

====

SUBJECT_OF_TEST: Fatty-acid amide hydrolase 1 (Rattus norvegicus, UniProt P97612)
Sequence (P97612 whole entry): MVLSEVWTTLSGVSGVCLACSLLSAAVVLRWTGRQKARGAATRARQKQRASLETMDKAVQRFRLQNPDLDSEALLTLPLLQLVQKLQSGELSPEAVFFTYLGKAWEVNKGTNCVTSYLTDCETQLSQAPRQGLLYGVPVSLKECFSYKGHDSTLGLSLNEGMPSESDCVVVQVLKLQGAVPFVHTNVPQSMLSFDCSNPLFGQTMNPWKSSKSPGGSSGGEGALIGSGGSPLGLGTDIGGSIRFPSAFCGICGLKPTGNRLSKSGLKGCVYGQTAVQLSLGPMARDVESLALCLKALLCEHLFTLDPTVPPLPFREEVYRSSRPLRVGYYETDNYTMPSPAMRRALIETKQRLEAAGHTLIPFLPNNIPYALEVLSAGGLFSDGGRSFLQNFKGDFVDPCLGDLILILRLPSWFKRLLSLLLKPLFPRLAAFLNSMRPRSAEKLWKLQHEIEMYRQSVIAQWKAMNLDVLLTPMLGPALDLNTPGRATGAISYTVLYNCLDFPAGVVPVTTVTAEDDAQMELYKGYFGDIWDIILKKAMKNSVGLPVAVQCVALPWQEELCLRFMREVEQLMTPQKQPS
TEST_METHOD_NOTES: Inhibitory constant determined against recombinant Fatty-acid amide hydrolase from rat expressed in Escherichia coli
pKi: −log10 of the molar value.
Consider the following partition of reported pKi into named classes: LOW = under 7, MID = from 7 up to 8, HIGH = 8 and over

INSERT INTO measurements (compound, subject_of_test, category) VALUES
  ('CCCCCCCCCCCC(=O)c1ncc(-c2ccccn2)o1', 'Fatty-acid amide hydrolase 1 (Rattus norvegicus, UniProt P97612)', 'HIGH'),
  ('CCCCCC(=O)c1ncc(-c2ccccn2)o1', 'Fatty-acid amide hydrolase 1 (Rattus norvegicus, UniProt P97612)', 'LOW'),
  ('CCCC(=O)c1ncc(-c2ccccn2)o1', 'Fatty-acid amide hydrolase 1 (Rattus norvegicus, UniProt P97612)', 'LOW'),
  ('CCCCCCC(=O)c1ncc(-c2ccccn2)o1', 'Fatty-acid amide hydrolase 1 (Rattus norvegicus, UniProt P97612)', 'LOW'),
  ('CCCCCCCCC#CCCCCCCCC(=O)c1nc2ncccc2o1', 'Fatty-acid amide hydrolase 1 (Rattus norvegicus, UniProt P97612)', 'HIGH'),
  ('CCCCCCCCCCCCCCCCCC(=O)c1ncc(-c2ccccn2)o1', 'Fatty-acid amide hydrolase 1 (Rattus norvegicus, UniProt P97612)', 'MID'),
  ('CCCCCCCC/C=C\CCCCCCCC(=O)c1nc(-c2ccccn2)co1', 'Fatty-acid amide hydrolase 1 (Rattus norvegicus, UniProt P97612)', 'MID'),
  ('O=C(CCCCCCCCCCc1ccccc1)c1ncc(-c2ccccn2)o1', 'Fatty-acid amide hydrolase 1 (Rattus norvegicus, UniProt P97612)', 'MID'),
  ('CCCCCCCC/C=C\CCCCCCCC(=O)c1nc2ncccc2o1', 'Fatty-acid amide hydrolase 1 (Rattus norvegicus, UniProt P97612)', 'HIGH'),
  ('O=C(CCCC#Cc1ccccc1)c1ncc(-c2ccccn2)o1', 'Fatty-acid amide hydrolase 1 (Rattus norvegicus, UniProt P97612)', 'MID'),
  ('CCCCCCCC/C=C\CCCCCCCC(=O)c1ncc(-c2nccn2C)o1', 'Fatty-acid amide hydrolase 1 (Rattus norvegicus, UniProt P97612)', 'MID'),
  ('OC(CCCCCCc1ccccc1)c1ncc(-c2ccccn2)o1 (stereo not given)', 'Fatty-acid amide hydrolase 1 (Rattus norvegicus, UniProt P97612)', 'LOW'),
  ('O=C(CCCCCCc1ccccc1)c1ncc(-c2ncccn2)o1', 'Fatty-acid amide hydrolase 1 (Rattus norvegicus, UniProt P97612)', 'HIGH'),
  ('CCCCCCCC/C=C\CCCCCCCC(=O)c1ncc(-c2ccsc2)o1', 'Fatty-acid amide hydrolase 1 (Rattus norvegicus, UniProt P97612)', 'LOW'),
  ('O=C(Cc1ccccc1)c1ncc(-c2ccccn2)o1', 'Fatty-acid amide hydrolase 1 (Rattus norvegicus, UniProt P97612)', 'LOW'),
  ('CCCCCCCC/C=C\CCCCCCCC(=O)c1ncc(-c2cnccn2)o1', 'Fatty-acid amide hydrolase 1 (Rattus norvegicus, UniProt P97612)', 'MID');

====

SUBJECT_OF_TEST: Fatty-acid amide hydrolase 1 (Rattus norvegicus, UniProt P97612)
Sequence (P97612 whole entry): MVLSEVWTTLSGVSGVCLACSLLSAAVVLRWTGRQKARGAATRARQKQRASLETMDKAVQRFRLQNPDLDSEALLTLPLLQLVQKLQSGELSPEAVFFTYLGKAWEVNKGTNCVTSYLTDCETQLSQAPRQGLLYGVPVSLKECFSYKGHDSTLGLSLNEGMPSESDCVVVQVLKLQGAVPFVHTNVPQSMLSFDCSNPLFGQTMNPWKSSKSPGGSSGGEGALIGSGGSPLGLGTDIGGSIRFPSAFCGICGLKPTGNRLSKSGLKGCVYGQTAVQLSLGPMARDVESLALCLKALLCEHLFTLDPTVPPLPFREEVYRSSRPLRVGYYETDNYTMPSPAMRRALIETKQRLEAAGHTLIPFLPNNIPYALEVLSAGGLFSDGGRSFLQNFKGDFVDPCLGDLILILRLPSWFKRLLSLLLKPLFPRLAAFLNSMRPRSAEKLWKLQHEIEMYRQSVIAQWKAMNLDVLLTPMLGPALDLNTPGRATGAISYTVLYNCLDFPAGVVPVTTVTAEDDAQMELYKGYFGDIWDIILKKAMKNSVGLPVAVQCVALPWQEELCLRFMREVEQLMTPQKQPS
TEST_METHOD_NOTES: Inhibitory constant determined against recombinant Fatty-acid amide hydrolase from rat expressed in Escherichia coli
This listing pairs compounds with measured Ki.
ASSAY_READOUT: Ki (nM)

INSERT INTO assay_data (mol_smiles, assay_readout, value) VALUES
  ('CCCCCCCC/C=C\CCCCCCCC(=O)c1ncc(-c2nccs2)o1', 'Ki', 16),
  ('O=C(CCCCCCCc1ccccc1)c1ncc(-c2ccccn2)o1', 'Ki', 7.5),
  ('CCCCCCCC/C=C\CCCCCCCC(=O)c1ncc(-c2cccnn2)o1', 'Ki', 14),
  ('O=C(CCCCCc1ccccc1)c1ncc(-c2ccccn2)o1', 'Ki', 11),
  ('O=C(CCCc1ccccc1)c1ncc(-c2ccccn2)o1', 'Ki', 120),
  ('CCCCCCCC/C=C\CCCCCCCC(=O)c1ncc(-c2ncco2)o1', 'Ki', 12),
  ('O=C(CCCCCCCCCc1ccccc1)c1ncc(-c2ccccn2)o1', 'Ki', 10),
  ('CCCCCCCC/C=C\CCCCCCCC(=O)c1ncc(-c2cccnc2)o1', 'Ki', 61),
  ('CCCCCCCC/C=C\CCCCCCCC(=O)C(F)(F)F', 'Ki', 80);
